Parameter: pKd. Scope: all listed entries.
Target: T1, human IL-13 wild type (human, UniProt P35225 35-146)
T1 construct: also called h IL-13; h IL-13 wt
T1 sequence (P35225 other isoform, or with tags, fused parts or gaps limits assumed): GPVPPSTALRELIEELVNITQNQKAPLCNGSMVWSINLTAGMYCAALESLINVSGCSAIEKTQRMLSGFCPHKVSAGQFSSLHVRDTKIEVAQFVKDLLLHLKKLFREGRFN
Test: SPR (Biacore)
Protocol: The BIACORE assay (Biacore, Inc, Piscataway, N.J.) determines the affinity of antibodies with kinetic measurements of on-, off-rate constants. […] The association and dissociation rate constants, kₒₙ (unit M⁻¹s⁻¹) and koff (unit s⁻¹) were determined under a continuous flow rate of 25 μl/min Rate constants were derived by making kinetic binding measurements at ten different antigen concentrations ranging from 10-200 nM. […]
pKd: −log10 of the molar value.
Observed Property: pKd

Binder	Measurement
13C5-Chim (antibody, human IgG1, V domains shown, also called chimeric 13C5) VH: QVTLKESGPGILQPSQTLSLTCSFSGFSLSTSDMGVDWIRQPSGKGLEWLAHIWWDDVKRYNPALKSRLTISKDTSSSQVFLMLASVDTADTATYYCARTVSSGYIYYAMDYWGQGTSVTVSS VL: DIQMTQTASSLSASLGDRVTISCRASQDIRNYLNWYQRKPDGTVKLLIFYTSKLHSGVPSRFSGSGSGTDYSLTIRNLEQEDIATYFCQQGNTLPLTFGGGTKLEIKR	10.25
13C5.1 (antibody, human IgG1, V domains shown, Humanized) VH: EVTLKESGPVLVKPTETLTLTCTFSGFSLSTSDMGVDWIRQPPGKALEWLAHIWWDDVKRYNPALKSRLTISKDTSKSQVVLTMTNMDPVDTATYYCARTVSSGYIYYAMDYWGQGTTVTVSS VL: DIQMTQSPSSLSASVGDRVTITCRASQDIRNYLNWYQRKPGKVVKLLIYYTSKLHSGVPSRFSGSGSGTDFTLTISSLQPEDVATYYCQQGNTLPLTFGGGTKVEIKR	9.15
13C5.5 (antibody, human IgG1, V domains shown, Humanized; The light chain row is printed 'VL 1305.5'; also called humanized 13C5; recombinant humanized antibody 13C5.5) VH: EVTLRESGPGLVKPTQTLTLTCTLYGFSLSTSDMGVDWIRQPPGKGLEWLAHIWWDDVKRYNPALKSRLTISKDTSKNQVVLKLTSVDPVDTATYYCARTVSSGYIYYAMDYWGQGTLVTVSS VL: DIQMTQSPSSLSASVGDRVTISCRASQDIRNYLNWYQQKPGKAPKLLIFYTSKLHSGVPSRFSGSGSGTDYTLTISSLQPEDIATYYCQQGNTLPLTFGGGTKVEIK	10.15
5G1.2 (antibody, human IgG1, V domains shown, Humanized) VH: EVQLVQSGAEVKKPGASVKVSCKASGYTFTTYGVSWVRQAPGQGLEWIGEIYPGNYNTYYNEKFRGKATLTADKSTSTAYMELSSLRSDDTAVYFCSRWRTSYFSDYGYFDYWGQGTTVTVSS VL: DVVMTQSPLSLPVTLGQPASISCRSSQSLVHSHGNTYLHWYQQRPGQSPRLLIYTVSNRFSGVPDRFSGSGSGTDFTLKISRVEAEDVGVYFCSQSTHVPYTFGGGTKVEIKR	9.98
5G1-Chim (antibody, V domains shown, also called chimeric 5G1) VH: QVQLQQSGAELARPGTSVKLSCKASGYTFTTYGVSWVKQRTGQGLEWIGEIYPGNYNTYYNEKFRGKATLTADKSSSTAYMQLSSLTSEDSAVYFCSRWRTSYFSDYGYFDYWGQGTTLTVSS VL: DVVMTQTPLSLPVSLGDQASISCRSSQSLVHSHGNTYLHWYLQKPGQSPKLLIYTVSNRFSGVPDRFSGSGSGTDFTLKISRVEAEDLGVYFCSQSTHVPYTFGGGTKLEIKR	10.38
13C5.5L3F (antibody, V domains shown, The heavy chain row is printed 'VH 13C5.5L2F') VH: EVTLRESGPGLVKPTQTLTLTCTLYGFSLSTSDMGVDWIRQPPGKGLEWLAHIWWDDVKRYNPALKSRLTISKDTSKNQVVLKLTSVDPVDTATYYCARTVSSGYIYYAMDYWGQGTLVTVSS VL: DIQMTQSPSSLSASVGDRVTISCRASQDIRNYLNWYQQKPGKAPKLLIFYTSKLHSGVPSRFSGSGSGTDYTLTISSLQPEDIATYYCQQGLTPPLTFGGGTKVEIK	9.62
13C5.2 (antibody, human IgG1, V domains shown, Humanized) VH: EVTLKESGPVLVKPTETLTLTCTFSGFSLSTSDMGVDWIRQPPGKALEWLAHIWWDDVKRYNPALKSRLTISKDTSKSQVVLTMTNMDPVDTATYYCARTVSSGYIYYAMDYWGQGTTVTVSS VL: DIQMTQTPSSLSASVGDRVTISCRASQDIRNYLNWYQRKPGKVVKLLIFYTSKLHSGVPSRFSGSGSGTDYTLTISSLQPEDVATYFCQQGNTLPLTFGGGTKVEIKR	10.01
13C5.5L2E (antibody, V domains shown, constant regions not restated for this variant) VH: EVTLRESGPGLVKPTQTLTLTCTLYGFSLSTSDMGVDWIRQPPGKGLEWLAHIWWDDVKRYNPALKSRLTISKDTSKNQVVLKLTSVDPVDTATYYCARTVSSGYIYYAMDYWGQGTLVTVSS VL: DIQMTQSPSSLSASVGDRVTISCRASQDIRNYLNWYQQKPGKAPKLLIFYTSMKPRGVPSRFSGSGSGTDYTLTISSLQPEDIATYYCQQGNTLPLTFGGGTKVEIK	9.92
